# Tested System: LRRK2 (human)
# Experimental Details: radiometric filter-binding kinase assay, Kinase HotSpot
# Assay Context: compound 0.5 µM; ATP 10 µM
Listed below: residual activity values for each entry.

Smiles Text: CCN(CC)CCNC(=O)c1c(C)[nH]c(/C=C2\C(=O)Nc3ccc(Cl)cc32)c1C
Endpoint Unit: %
residual activity: 1.44

Smiles Text: O=C1NC(=O)/C(=C/c2ccc3c(c2)OC(F)(F)O3)S1
Endpoint Unit: %
residual activity: 103

Smiles Text: Nc1ncnc2[nH]nc(Nc3ccc(F)cc3)c12
Endpoint Unit: %
residual activity: 89.6

Smiles Text: Nc1ccc2ncnc(NCCc3ccc(Oc4ccccc4)cc3)c2c1
Endpoint Unit: %
residual activity: 98.5

Smiles Text: Oc1cccc(-c2nc(N3CCOCC3)c3oc4ncccc4c3n2)c1
Endpoint Unit: %
residual activity: 101

Smiles Text: COc1ccc2c(c[n+](C)c3c4cc5c(cc4ccc23)OCO5)c1OC
Endpoint Unit: %
residual activity: 104

Smiles Text: CCN(CC)C(=O)c1ccc(Nc2nc(OCC3CCCCC3)c3nc[nH]c3n2)cc1
Endpoint Unit: %
residual activity: 2.21

Smiles Text: CCN(CC)CCNC(=O)c1c(C)[nH]c(/C=C2\C(=O)Nc3ccc(F)cc32)c1C
Endpoint Unit: %
residual activity: 3.34

Smiles Text: c1ccc(-c2n[nH]cc2-c2ccnc3ccccc23)nc1
Endpoint Unit: %
residual activity: 93.7

Smiles Text: CC#CC(=O)Nc1cc2c(Nc3ccc(F)c(Cl)c3)ncnc2cn1
Endpoint Unit: %
residual activity: 92.3

Smiles Text: O=c1cc(N2CCOCC2)oc2c1ccc1ccccc12
Endpoint Unit: %
residual activity: 96.9

* * *

# Tested System: EPHA3 (human) (UniProt P29320)
# Sequence (P29320 whole entry, looked up): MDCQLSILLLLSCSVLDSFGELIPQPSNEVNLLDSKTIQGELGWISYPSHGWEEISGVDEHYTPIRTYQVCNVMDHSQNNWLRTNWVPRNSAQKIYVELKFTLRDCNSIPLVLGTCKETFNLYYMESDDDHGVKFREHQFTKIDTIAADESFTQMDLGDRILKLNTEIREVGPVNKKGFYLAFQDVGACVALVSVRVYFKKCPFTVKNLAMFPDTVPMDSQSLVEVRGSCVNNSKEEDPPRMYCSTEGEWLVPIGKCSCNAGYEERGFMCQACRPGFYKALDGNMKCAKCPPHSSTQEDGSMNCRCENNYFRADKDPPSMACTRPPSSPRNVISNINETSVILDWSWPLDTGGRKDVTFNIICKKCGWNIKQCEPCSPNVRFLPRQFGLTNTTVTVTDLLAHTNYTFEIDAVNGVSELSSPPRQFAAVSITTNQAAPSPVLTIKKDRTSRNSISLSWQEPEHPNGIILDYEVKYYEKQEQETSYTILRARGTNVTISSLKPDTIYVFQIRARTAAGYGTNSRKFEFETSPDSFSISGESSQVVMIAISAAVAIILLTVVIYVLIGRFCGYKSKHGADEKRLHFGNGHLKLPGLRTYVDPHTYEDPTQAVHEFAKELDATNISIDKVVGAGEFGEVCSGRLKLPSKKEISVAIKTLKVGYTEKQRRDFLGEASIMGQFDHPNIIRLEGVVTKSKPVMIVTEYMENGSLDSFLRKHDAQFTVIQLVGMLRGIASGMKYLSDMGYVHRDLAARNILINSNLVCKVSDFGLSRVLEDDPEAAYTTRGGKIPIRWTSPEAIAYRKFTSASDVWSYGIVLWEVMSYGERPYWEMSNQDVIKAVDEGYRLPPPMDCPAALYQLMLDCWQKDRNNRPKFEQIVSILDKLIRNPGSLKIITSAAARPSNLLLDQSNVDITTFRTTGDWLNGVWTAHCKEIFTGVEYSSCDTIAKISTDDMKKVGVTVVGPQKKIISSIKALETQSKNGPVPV
# Experimental Details: radiometric filter-binding kinase assay, Kinase HotSpot
# Assay Context: compound 0.5 µM; ATP 10 µM
Each entry below carries its reported residual activity.
Endpoint Name: residual activity (%)

Smiles Text: c1ccc(-c2n[nH]cc2-c2ccnc3ccccc23)nc1
Endpoint Unit: %
Reported Value: 99.3
--
Smiles Text: COc1ccc2c(c[n+](C)c3c4cc5c(cc4ccc23)OCO5)c1OC
Endpoint Unit: %
Reported Value: 94.9
--
Smiles Text: c1ccc(-c2n[nH]c3c2oc2ccccc23)cc1
Endpoint Unit: %
Reported Value: 104
--
Smiles Text: Cc1ccc(S(=O)(=O)/C=C/C#N)cc1
Endpoint Unit: %
Reported Value: 95
--
Smiles Text: CCN(CC)CCNC(=O)c1c(C)[nH]c(/C=C2\C(=O)Nc3ccc(Cl)cc32)c1C
Endpoint Unit: %
Reported Value: 92.5

* * *

# Tested System: CDK1 CCNA2 (human) (UniProt P06493+P20248)
# Sequence (P06493 whole entry, looked up): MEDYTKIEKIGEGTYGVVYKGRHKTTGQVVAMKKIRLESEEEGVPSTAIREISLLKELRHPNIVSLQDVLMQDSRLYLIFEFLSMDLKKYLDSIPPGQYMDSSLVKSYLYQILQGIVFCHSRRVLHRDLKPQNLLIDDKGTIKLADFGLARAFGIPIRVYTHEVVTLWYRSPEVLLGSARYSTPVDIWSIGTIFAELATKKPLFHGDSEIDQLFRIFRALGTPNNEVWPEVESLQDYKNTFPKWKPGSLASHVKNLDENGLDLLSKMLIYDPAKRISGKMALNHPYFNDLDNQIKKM
# Sequence (P20248 whole entry, looked up): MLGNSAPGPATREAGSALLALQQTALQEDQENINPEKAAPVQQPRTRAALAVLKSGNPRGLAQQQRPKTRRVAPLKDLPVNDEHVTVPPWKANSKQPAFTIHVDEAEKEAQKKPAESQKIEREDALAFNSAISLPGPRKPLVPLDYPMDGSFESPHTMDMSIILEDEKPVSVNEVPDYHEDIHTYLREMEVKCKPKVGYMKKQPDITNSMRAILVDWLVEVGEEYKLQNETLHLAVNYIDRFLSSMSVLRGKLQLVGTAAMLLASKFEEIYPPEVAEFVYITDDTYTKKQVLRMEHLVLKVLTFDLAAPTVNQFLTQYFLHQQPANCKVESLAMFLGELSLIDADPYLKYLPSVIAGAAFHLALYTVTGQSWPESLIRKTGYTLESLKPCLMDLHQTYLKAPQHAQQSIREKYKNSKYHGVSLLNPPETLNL
# Experimental Details: radiometric filter-binding kinase assay, Kinase HotSpot
# Assay Context: compound 0.5 µM; ATP 10 µM
Entries and their residual activity
Endpoint Name: residual activity

Smiles Text: Cc1nc(Nc2ncc(C(=O)Nc3c(C)cccc3Cl)s2)cc(N2CCN(CCO)CC2)n1
Reported Value: 96.3%
--
Smiles Text: O=c1cc(N2CCOCC2)oc2c1ccc1ccccc12
Reported Value: 103%
--
Smiles Text: COc1ccc(COc2ccc(Cc3cnc(N)nc3N)cc2OC)cc1
Reported Value: 98.7%
--
Smiles Text: N#C/C(=C(/N)Sc1ccc(N)cc1)c1ccccc1C(F)(F)F
Reported Value: 91.2%
--
Smiles Text: CC#CC(=O)Nc1cc2c(Nc3ccc(F)c(Cl)c3)ncnc2cn1
Reported Value: 96.5%
--
Smiles Text: Cc1ccc(S(=O)(=O)/C=C/C#N)cc1
Reported Value: 96.7%
